The reported numbers originate from ChEMBL document CHEMBL6134821.

Target: Protein cereblon/Tyrosine-protein kinase BTK (Homo sapiens, UniProt Q06187+Q96SW2)
Test: PROTAC activity at CRBN/BTK in human JeKo-1 cells assessed as BTK degradation at 10 nM incubated for 24 hrs by Western blot analysis relative to control
Format: cell-based
Sequence (Q06187 2-659 limits assumed): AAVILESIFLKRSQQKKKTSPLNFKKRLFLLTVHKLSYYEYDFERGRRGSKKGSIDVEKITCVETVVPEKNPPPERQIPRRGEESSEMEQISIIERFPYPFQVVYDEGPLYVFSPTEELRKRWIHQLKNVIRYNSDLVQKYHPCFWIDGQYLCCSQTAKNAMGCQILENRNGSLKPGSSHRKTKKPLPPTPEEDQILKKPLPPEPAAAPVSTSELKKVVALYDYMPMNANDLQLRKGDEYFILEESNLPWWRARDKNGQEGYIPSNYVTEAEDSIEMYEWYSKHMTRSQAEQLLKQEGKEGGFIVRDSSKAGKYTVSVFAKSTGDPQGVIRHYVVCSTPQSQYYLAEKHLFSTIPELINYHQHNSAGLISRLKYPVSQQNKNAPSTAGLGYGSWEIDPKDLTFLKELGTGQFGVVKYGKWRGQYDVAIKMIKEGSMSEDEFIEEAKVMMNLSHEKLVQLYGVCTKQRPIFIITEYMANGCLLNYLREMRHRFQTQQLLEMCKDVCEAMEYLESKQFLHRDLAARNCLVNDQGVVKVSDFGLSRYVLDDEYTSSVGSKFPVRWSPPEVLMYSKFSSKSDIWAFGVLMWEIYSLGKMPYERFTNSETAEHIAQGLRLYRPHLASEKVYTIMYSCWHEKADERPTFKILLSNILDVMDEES
Sequence (Q96SW2 whole entry partner): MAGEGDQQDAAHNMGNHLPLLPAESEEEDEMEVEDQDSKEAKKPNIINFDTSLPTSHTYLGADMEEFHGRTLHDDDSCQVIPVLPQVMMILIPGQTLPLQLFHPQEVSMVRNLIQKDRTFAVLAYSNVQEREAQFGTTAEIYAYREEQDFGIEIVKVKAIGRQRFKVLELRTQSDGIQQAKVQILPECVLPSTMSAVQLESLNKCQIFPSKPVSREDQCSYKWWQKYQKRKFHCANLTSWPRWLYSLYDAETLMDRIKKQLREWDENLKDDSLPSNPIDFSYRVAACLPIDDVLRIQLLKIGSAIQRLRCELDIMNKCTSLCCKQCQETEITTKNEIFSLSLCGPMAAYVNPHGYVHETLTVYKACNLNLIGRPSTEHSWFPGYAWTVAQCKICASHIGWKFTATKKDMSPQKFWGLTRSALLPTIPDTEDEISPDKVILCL
// F strictly below 80% in Activity; T otherwise

O=C1CCC(c2ccc(N3CCC(CCN4CCC(CC(=O)N[C@H]5CC[C@H](Nc6ncnc7[nH]cc(C(=O)c8ccc(Oc9ccccc9)cc8)c67)C5)CC4)CC3)nc2)C(=O)N1 (stereo partly specified) :: T
O=C1CCC(c2cccc(N3CCC(CCN4CCC(CC(=O)N[C@H]5CC[C@@H](Nc6ncnc7[nH]cc(C(=O)c8ccc(Oc9ccccc9)cc8Cl)c67)CC5)CC4)CC3)c2)C(=O)N1 (stereo partly specified) :: F
O=C1CCC(c2ccc(N3CCC(CN4CCC(CC(=O)N[C@H]5CC[C@H](Nc6ncnc7[nH]cc(C(=O)c8ccc(Oc9ccccc9)cc8)c67)C5)CC4)CC3)cc2)C(=O)N1 (stereo partly specified) :: F
O=C1CCC(N2Cc3cc(N4CCC(CCN5CCC(CC(=O)N[C@H]6CC[C@@H](Nc7ncnc8[nH]cc(C(=O)c9ccc(Oc%10ccccc%10)cc9Cl)c78)CC6)CC5)CC4)c(F)cc3C2=O)C(=O)N1 (stereo partly specified) :: T
O=C1CCC(c2ccc(N3CCC(CCN4CCC(CC(=O)N[C@H]5CC[C@@H](Nc6ncnc7[nH]cc(C(=O)c8ccc(Oc9ccccc9)cc8)c67)CC5)CC4)CC3)cc2)C(=O)N1 (stereo partly specified) :: F
O=C1CCC(N2Cc3cc(N4CCC(CCN5CCC(CC(=O)N[C@H]6CC[C@@H](Nc7ncnc8[nH]cc(C(=O)c9ccccc9Cl)c78)CC6)CC5)CC4)c(F)cc3C2=O)C(=O)N1 (stereo partly specified) :: F
O=C1CCC(c2ccc(N3CCC(CN4CCC(CC(=O)N[C@H]5CC[C@H](Nc6ncnc7[nH]cc(C(=O)c8ccc(Oc9ccccc9)cc8)c67)C5)CC4)CC3)nc2)C(=O)N1 (stereo partly specified) :: T
O=C1CCC(c2ccc(N3CCC(CCN4CCN(CC(=O)N[C@H]5CC[C@@H](Nc6ncnc7[nH]cc(C(=O)c8ccc(Oc9ccccc9)cc8)c67)CC5)CC4)CC3)cc2)C(=O)N1 (stereo partly specified) :: F

Ask: Is the recorded value of Activity equal to or greater than 80% for this compound? O=C1CCC(N2Cc3cc(N4CCC(CCN5CCC(CC(=O)N[C@@H]6CC[C@H](Nc7ncnc8[nH]cc(C(=O)c9ccc(Oc%10ccccc%10)cc9Cl)c78)C6)CC5)CC4)c(F)cc3C2=O)C(=O)N1 (stereo partly specified)
Reply: F

Ask: Consider next the compound O=C1CCC(N2Cc3cc(N4CCC(CCN5CCC(CC(=O)N[C@H]6CC[C@H](Nc7ncnc8[nH]cc(C(=O)c9ccc(Oc%10ccccc%10)cc9Cl)c78)C6)CC5)CC4)c(F)cc3C2=O)C(=O)N1 (stereo partly specified) in the same way.
Reply: T

Ask: How about O=C1CCC(N2Cc3cc(N4CCC(CCN5CCC(CC(=O)N[C@@H]6CCC[C@H](Nc7ncnc8[nH]cc(C(=O)c9ccc(Oc%10ccccc%10)cc9Cl)c78)C6)CC5)CC4)c(F)cc3C2=O)C(=O)N1 (stereo partly specified) ?
Reply: F

Ask: Next: O=C1CCC(c2ccc(N3CCC(CN4CCC(CC(=O)N[C@H]5CC[C@@H](Nc6ncnc7[nH]cc(C(=O)c8ccc(Oc9ccccc9)cc8)c67)CC5)CC4)C3)cc2)C(=O)N1 (stereo partly specified)
Reply: F

###

Listing: DC50 of selected compounds
Target: Protein cereblon/Tyrosine-protein kinase BTK (Homo sapiens, UniProt Q06187+Q96SW2)
Test: PROTAC activity at CRBN/BTK in human JeKo-1 cells assessed as BTK degradation incubated for 24 hrs by Western blot analysis
Type: cell-based
Sequence (Q06187 whole entry): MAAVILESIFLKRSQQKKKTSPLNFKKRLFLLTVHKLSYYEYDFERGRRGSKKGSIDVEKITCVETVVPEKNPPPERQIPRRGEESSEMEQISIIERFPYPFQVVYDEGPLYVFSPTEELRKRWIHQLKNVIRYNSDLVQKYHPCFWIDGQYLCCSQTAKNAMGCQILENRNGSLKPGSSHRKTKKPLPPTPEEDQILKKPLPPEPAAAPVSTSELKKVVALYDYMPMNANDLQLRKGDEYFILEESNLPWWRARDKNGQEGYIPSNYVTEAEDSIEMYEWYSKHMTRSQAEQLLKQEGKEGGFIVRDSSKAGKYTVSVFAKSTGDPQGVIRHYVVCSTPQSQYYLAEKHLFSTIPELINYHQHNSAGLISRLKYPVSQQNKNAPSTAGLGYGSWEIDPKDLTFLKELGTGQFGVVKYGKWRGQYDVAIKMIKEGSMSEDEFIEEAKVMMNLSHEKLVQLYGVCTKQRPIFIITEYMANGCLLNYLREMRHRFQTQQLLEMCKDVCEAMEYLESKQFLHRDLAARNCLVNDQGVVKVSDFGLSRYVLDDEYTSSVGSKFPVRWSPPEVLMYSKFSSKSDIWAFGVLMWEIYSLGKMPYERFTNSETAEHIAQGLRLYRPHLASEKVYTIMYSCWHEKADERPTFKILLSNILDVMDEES
Sequence (Q96SW2 whole entry): as the sequence (Q96SW2 whole entry partner) above
Quick note: give the figure in nM, leave out the unit.

# example entries with known answers
O=C1CCC(c2ccc(N3CCC(CN4CCC(CC(=O)N[C@H]5CC[C@H](Nc6ncnc7[nH]cc(C(=O)c8ccc(Oc9ccccc9)cc8)c67)C5)CC4)CC3)cc2)C(=O)N1 (some centres undefined) :: 3.6
O=C1CCC(c2ccc(N3CCC(CCN4CCC(CC(=O)N[C@H]5CC[C@H](Nc6ncnc7[nH]cc(C(=O)c8ccc(Oc9ccccc9)cc8)c67)C5)CC4)CC3)nc2)C(=O)N1 (some centres undefined) :: 2.9
O=C1CCC(c2ccc(N3CCC(CN4CCC(CC(=O)N[C@H]5CC[C@H](Nc6ncnc7[nH]cc(C(=O)c8ccc(Oc9ccccc9)cc8)c67)C5)CC4)CC3)nc2)C(=O)N1 (some centres undefined) :: 3.1

Ask: Any idea what DC50 was measured for O=C1CCC(c2ccc(N3CCC(CCN4CCC(CC(=O)N[C@H]5CC[C@H](Nc6ncnc7[nH]cc(C(=O)c8ccc(Oc9ccccc9)cc8)c67)C5)CC4)CC3)cc2)C(=O)N1 (some centres undefined) ?
Reply: 1.7

###

Target: Protein cereblon/Tyrosine-protein kinase BTK (Homo sapiens, UniProt Q06187+Q96SW2)
Test: PROTAC activity at CRBN/BTK in human JeKo-1 cells assessed as BTK degradation at 30 nM incubated for 24 hrs by Western blot analysis relative to control
Type: cell-based
Observed property: Activity (%)
Numbers only here, please. The scale is %.

The following molecules have reported results that may help.
O=C1CCC(N2Cc3cc(N4CCC(CCN5CCC(CC(=O)N6CCN(c7ncnc8[nH]cc(C(=O)c9ccc(Oc%10ccccc%10)cc9Cl)c78)CC6)CC5)CC4)c(F)cc3C2=O)C(=O)N1 (stereo not given) :: 53
O=C1CCC(c2cccc(N3CCC(CCN4CCC(CC(=O)N[C@H]5CC[C@@H](Nc6ncnc7[nH]cc(C(=O)c8ccc(Oc9ccccc9)cc8Cl)c67)CC5)CC4)CC3)c2)C(=O)N1 (stereo not given in full) :: 62
O=C1CCC(c2ccc(N3CCC(CCN4CCC(CC(=O)N[C@H]5CC[C@@H](Nc6ncnc7[nH]cc(C(=O)c8ccc(Oc9ccccc9)cc8Cl)c67)CC5)CC4)CC3)cc2)C(=O)N1 (stereo not given in full) :: 85
O=C1CCC(c2ccc(N3CCC(CN4CCC(CC(=O)N[C@H]5CC[C@@H](Nc6ncnc7[nH]cc(C(=O)c8ccc(Oc9ccccc9)cc8)c67)CC5)CC4)C3)cc2)C(=O)N1 (stereo not given in full) :: 11

Let's switch to this molecule now.
Ask: Which Activity value belongs to O=C1CCC(c2ccc(N3CC4(CCN(CC(=O)N[C@H]5CC[C@@H](Nc6ncnc7[nH]cc(C(=O)c8ccc(Oc9ccccc9)cc8)c67)CC5)CC4)C3)cc2)C(=O)N1 (stereo not given in full) ?
Reply: 4

###

Assay: Cytotoxicity against human TMD8 cells harboring BTK C481S mutant assessed as inhibition of cell viability incubated for 5 days by CCK8 assay
Format: functional, cell-based
Settings: TMD8, 120 h
# if measured IC50 < 30 nM: satisfied  # else: not satisfied

NC(=O)c1ncc(N2CCCCC2)nc1Nc1ccc(C2CCN(C[C@@H]3CCN(c4ccc5c(c4)C(=O)N(C4CCC(=O)NC4=O)C5=O)C3)CC2)cc1 (stereo not given in full) :: satisfied
O=C(c1ccc(Oc2ccccc2)cc1Cl)c1c[nH]c2ncnc(N[C@@H]3CC[C@@H](CO)OC3)c12 :: not satisfied
O=C1CCC(N2Cc3cc(N4CCC(CCN5CCC(CC(=O)N[C@H]6CC[C@@H](Nc7ncnc8[nH]cc(C(=O)c9ccc(Oc%10ccccc%10)cc9Cl)c78)CC6)CC5)CC4)c(F)cc3C2=O)C(=O)N1 (stereo not given in full) :: satisfied
O=C1CCC(c2ccc(N3CCC(CCN4CCC(CC(=O)N[C@H]5CC[C@H](Nc6ncnc7[nH]cc(C(=O)c8ccc(Oc9ccccc9)cc8)c67)C5)CC4)CC3)cc2)C(=O)N1 (stereo not given in full) :: satisfied

Ask: I'd appreciate it if you could check whether O=C1CCC(c2ccc(N3CCC(CCN4CCC(CC(=O)N[C@H]5CC[C@H](Nc6ncnc7[nH]cc(C(=O)c8ccc(Oc9ccccc9)cc8)c67)C5)CC4)CC3)nc2)C(=O)N1 (stereo not given in full) has IC50 smaller than 30 nM.
Reply: satisfied

###

Target: Protein cereblon/Tyrosine-protein kinase BTK (Homo sapiens, UniProt Q06187+Q96SW2)
Assay: PROTAC activity at CRBN/BTK in human JeKo-1 cells assessed as BTK degradation at 30 nM incubated for 24 hrs by Western blot analysis relative to control
Assay type: cell-based
Observed property: Activity
Field note: include the unit after the figure.

O=C1CCC(n2ncc(N3CCC(CCN4CCC(CC(=O)N[C@H]5CC[C@@H](Nc6ncnc7[nH]cc(C(=O)c8ccc(Oc9ccccc9)cc8Cl)c67)CC5)CC4)CC3)c(Cl)c2=O)C(=O)N1 (some centres undefined) :: 88%
O=C1CCC(c2ccc(N3CCC(CN4CCC(CC(=O)N[C@H]5CC[C@H](Nc6ncnc7[nH]cc(C(=O)c8ccc(Oc9ccccc9)cc8)c67)C5)CC4)CC3)nc2)C(=O)N1 (some centres undefined) :: 91%
O=C1CCC(N2Cc3cc(N4CCC(CCN5CCC(CC(=O)N[C@@H]6CC[C@H](Nc7ncnc8[nH]cc(C(=O)c9ccc(Oc%10ccccc%10)cc9Cl)c78)C6)CC5)CC4)c(F)cc3C2=O)C(=O)N1 (some centres undefined) :: 91%

Now examine the next entry.
Ask: May I ask what Activity has been recorded for O=C1CCC(N2Cc3cc(N4CCC(CCN5CCC(CC(=O)N[C@H]6CC[C@@H](Nc7ncnc8[nH]cc(C(=O)c9ccc(Oc%10ccccc%10)cc9Cl)c78)CC6)CC5)CC4)c(F)cc3C2=O)C(=O)N1 (some centres undefined) ?
Reply: 92%
